- TARGET_OF_ASSAY: […]F508-CFTR (Homo sapiens, UniProt P13569, DEL508-508)
- Sequence (P13569 with tags, fused parts or gaps DEL508-508): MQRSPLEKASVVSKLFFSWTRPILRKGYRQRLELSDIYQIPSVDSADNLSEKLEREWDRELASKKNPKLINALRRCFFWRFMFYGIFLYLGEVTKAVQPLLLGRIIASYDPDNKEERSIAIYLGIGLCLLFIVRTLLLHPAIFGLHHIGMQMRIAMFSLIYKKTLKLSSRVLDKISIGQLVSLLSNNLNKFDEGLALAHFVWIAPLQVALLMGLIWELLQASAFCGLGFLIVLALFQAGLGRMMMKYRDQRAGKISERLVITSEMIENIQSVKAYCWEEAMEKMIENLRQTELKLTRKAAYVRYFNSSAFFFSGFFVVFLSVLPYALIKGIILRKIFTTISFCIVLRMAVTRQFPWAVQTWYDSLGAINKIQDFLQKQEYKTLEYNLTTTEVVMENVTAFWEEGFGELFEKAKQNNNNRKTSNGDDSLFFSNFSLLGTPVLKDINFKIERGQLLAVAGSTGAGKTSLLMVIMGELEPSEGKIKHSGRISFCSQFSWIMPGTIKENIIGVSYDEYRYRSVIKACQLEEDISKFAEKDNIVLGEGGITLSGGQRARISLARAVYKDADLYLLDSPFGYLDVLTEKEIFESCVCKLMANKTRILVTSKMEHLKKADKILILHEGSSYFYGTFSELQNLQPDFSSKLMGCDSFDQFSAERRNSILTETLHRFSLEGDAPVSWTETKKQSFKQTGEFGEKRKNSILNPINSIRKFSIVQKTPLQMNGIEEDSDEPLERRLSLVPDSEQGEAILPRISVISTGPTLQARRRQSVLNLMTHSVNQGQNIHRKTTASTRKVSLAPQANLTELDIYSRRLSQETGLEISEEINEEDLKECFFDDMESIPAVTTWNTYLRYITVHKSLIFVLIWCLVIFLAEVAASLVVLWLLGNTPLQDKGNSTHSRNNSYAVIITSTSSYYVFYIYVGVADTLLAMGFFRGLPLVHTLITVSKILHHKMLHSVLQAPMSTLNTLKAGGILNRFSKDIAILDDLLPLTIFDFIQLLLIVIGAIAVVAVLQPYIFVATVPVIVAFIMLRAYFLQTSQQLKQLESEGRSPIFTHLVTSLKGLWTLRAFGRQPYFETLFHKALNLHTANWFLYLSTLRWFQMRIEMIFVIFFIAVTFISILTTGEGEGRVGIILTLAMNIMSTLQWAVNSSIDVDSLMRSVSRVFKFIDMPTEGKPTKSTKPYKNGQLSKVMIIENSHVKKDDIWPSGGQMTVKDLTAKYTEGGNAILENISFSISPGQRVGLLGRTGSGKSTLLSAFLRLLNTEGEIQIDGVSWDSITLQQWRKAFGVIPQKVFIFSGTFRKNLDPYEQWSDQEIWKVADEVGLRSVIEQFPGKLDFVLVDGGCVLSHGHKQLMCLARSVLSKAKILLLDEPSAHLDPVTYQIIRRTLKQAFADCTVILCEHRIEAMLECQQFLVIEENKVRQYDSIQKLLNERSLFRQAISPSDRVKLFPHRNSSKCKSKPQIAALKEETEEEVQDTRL
- PROTOCOL_SUMMARY: Assay results of Table 3: ΔF508-CFTR modulation, membrane potential optical assay (assay format not stated)
- SETTINGS: potency range; NIH3T3 mouse fibroblasts stably expressing […]F508-CFTR (optical assays)
# EC50 per entry

Example entries begin here.
| SMILES_ENTRY | TEST_READOUT | TEST_VALUE |
| --- | --- | --- |
| NC(=O)c1cc(-c2ccccc2)nc(N2CCCCC2)n1 | EC50 | 1 to 5 µM |
| CC(C)CCN(CCC(C)C)c1nc(C(N)=O)cc(-c2ccccc2)n1 | EC50 | 1 to 5 µM |
| NC(=O)c1cc(-c2ccoc2)nc(N2CCCCC2)n1 | EC50 | > 5 µM |
| CCOCCN(CCOCC)c1nc(C(N)=O)cc(-c2ccccc2)n1 | EC50 | < 1 µM |

Short answer for COc1cccc(-c2cc(C(N)=O)nc(N3CCOCC3)n2)c1 : EC50 was > 5 µM

Short answer for Cc1ccc(-c2cc(C(N)=O)nc(N3CCCCC3)n2)cc1 : EC50 was 1 to 5 µM

Short answer for CCN(CC)c1nc(C(N)=O)cc(-c2ccc(C(=O)OC)cc2)n1 : EC50 was 1 to 5 µM

====

- TARGET_OF_ASSAY: […]F508-CFTR (Homo sapiens, UniProt P13569, DEL508-508)
- PROTOCOL_SUMMARY: Assay results of Table 3: ΔF508-CFTR modulation, membrane potential optical assay (assay format not stated)
- SETTINGS: potency range; NIH3T3 mouse fibroblasts stably expressing […]F508-CFTR (optical assays)
TEST_READOUT: EC50

Example entries begin here.
| COMPOUND | EC50 |
| --- | --- |
| NC(=O)c1cc(-c2ccccc2)nc(N2CCc3ccccc3C2)n1 [Compound 54] | 1 to 5 µM |
| CCCN(CC1CC1)c1nc(C(N)=O)cc(-c2cccc(OC)c2)n1 [Compound 89] | 1 to 5 µM |
| CC(C)CNc1nc(C(N)=O)cc(-c2ccccc2)n1 [Compound 51] | > 5 µM |
| NC(=O)c1cc(-c2ccccc2)nc(N2CCC3(CC2)OCCO3)n1 [Compound 44] | > 5 µM |
| CCOc1ccc(-c2cc(C(N)=O)nc(N(CC)CC)n2)cc1 [Compound 20] | < 1 µM |
| CC(=O)C1(c2ccccc2)CCN(c2nc(C(N)=O)cc(-c3ccccc3)n2)CC1 [Compound 45] | 1 to 5 µM |
| NC(=O)c1cc(-c2ccccc2)nc(N2CCC(O)(Cc3ccccc3)CC2)n1 [Compound 143] | > 5 µM |

Let's switch to this compound now.
Short answer for NC(=O)c1cc(-c2ccccc2)nc(N2CCC(CCO)CC2)n1 [Compound 181] : EC50 was > 5 µM

====

- TARGET_OF_ASSAY: […]F508-CFTR (Homo sapiens, UniProt P13569, DEL508-508)
- PROTOCOL_SUMMARY: Assay results of Table 3: ΔF508-CFTR modulation, membrane potential optical assay (assay format not stated)
- SETTINGS: potency range; NIH3T3 mouse fibroblasts stably expressing […]F508-CFTR (optical assays)
pEC50: −log10 of the molar value.
TEST_READOUT: pEC50

| COMPOUND | pEC50 |
| --- | --- |
| CN(C)C(=O)c1cc(-c2ccccc2)nc(N2CCCCCC2)n1 | < 5.30 |
| CCNc1nc(C(N)=O)cc(-c2cccc(OC)c2)n1 | < 5.30 |
| COc1cc2c(cc1OC)CN(c1nc(C(N)=O)cc(-c3ccccc3)n1)CC2 | < 5.30 |
| CN(C)C(=O)c1cc(-c2ccccc2)nc(N2CCCCC2)n1 | < 5.30 |
| CC1CCN(c2nc(C(N)=O)cc(-c3ccccc3)n2)CC1 | < 5.30 |

Short answer for CCCN(CC)c1nc(C(N)=O)cc(-c2ccccc2)n1 : pEC50 was 5.30 to 6.00

Short answer for CC1CCCN(c2nc(C(N)=O)cc(-c3ccccc3)n2)C1 (stereo not shown) : pEC50 was < 5.30

Short answer for CCN(CC)c1nc(C(N)=O)cc(-c2ccc(CC(C)C)cc2)n1 : pEC50 was > 6.00

Short answer for NC(=O)c1cc(-c2cccc(F)c2)nc(N2CCCCC2)n1 : pEC50 was < 5.30

Short answer for CCCN(CC1CC1)c1nc(C(N)=O)cc(-c2ccccc2OC)n1 : pEC50 was < 5.30

====

# pEC50 per entry
- TARGET_OF_ASSAY: […]F508-CFTR (Homo sapiens, UniProt P13569, DEL508-508)
- PROTOCOL_SUMMARY: Assay results of Table 3: ΔF508-CFTR modulation, membrane potential optical assay (assay format not stated)
- SETTINGS: potency range; NIH3T3 mouse fibroblasts stably expressing […]F508-CFTR (optical assays)
pEC50: −log10 of the molar value.

| SMILES_ENTRY | TEST_VALUE |
| --- | --- |
| CCN(CCc1ccccn1)c1nc(C(N)=O)cc(-c2ccccc2)n1 | 5.30 to 6.00 |
| CCN(CC)c1nc(C(=O)N2CCCCC2)cc(-c2ccccc2)n1 | < 5.30 |

Let's switch to this molecule now.
Short answer for COc1cccc(-c2cc(C(N)=O)nc(N)n2)c1 : pEC50 was < 5.30
